# SYSTEM NAME: VEGFR-2 (Homo sapiens, UniProt P35968)
# Sequence (P35968 20-1356, species assumed): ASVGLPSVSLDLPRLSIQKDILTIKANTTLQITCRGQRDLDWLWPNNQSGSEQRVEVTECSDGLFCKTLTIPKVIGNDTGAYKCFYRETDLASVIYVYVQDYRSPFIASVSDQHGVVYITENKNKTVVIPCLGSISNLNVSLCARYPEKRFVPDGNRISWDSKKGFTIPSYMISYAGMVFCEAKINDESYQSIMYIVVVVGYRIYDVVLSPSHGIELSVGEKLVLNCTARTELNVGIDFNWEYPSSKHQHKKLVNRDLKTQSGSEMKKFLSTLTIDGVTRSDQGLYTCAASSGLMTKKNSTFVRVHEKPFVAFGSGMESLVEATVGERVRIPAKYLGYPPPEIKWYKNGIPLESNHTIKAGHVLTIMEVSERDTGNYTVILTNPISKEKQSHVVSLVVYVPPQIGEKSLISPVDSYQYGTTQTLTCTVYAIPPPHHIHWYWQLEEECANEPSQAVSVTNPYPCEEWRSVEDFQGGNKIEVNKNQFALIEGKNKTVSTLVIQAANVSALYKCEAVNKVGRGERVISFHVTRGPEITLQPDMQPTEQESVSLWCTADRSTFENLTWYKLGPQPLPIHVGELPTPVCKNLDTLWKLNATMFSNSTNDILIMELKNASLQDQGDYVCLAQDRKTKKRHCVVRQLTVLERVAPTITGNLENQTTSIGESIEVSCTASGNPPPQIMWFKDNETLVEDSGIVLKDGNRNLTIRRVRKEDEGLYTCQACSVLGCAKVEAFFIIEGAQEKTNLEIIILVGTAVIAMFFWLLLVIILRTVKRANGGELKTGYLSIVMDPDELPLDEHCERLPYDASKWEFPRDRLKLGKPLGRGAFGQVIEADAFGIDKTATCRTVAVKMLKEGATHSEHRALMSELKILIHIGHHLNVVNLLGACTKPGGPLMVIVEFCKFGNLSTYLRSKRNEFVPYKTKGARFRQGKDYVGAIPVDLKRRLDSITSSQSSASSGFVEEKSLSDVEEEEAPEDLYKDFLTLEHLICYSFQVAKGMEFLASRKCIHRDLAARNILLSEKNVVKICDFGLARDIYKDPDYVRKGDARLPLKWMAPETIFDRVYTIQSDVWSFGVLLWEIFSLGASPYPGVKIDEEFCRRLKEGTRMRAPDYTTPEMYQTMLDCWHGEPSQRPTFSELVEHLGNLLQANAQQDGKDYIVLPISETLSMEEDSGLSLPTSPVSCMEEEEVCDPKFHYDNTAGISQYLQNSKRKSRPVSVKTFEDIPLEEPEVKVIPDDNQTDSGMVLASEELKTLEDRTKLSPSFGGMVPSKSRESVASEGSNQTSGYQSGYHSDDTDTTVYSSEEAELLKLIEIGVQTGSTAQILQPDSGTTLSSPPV
# ASSAY SUMMARY: VEGFR-2 kinase inhibition, Caliper screening (fluorescent substrate phosphorylation, electrophoretic separation)
# ASSAY CONDITIONS: concentration 1.0E−07 (unit not given)
MEASURED ENDPOINT: VEGFR-2 AVG % Activity at Specific Concentration (%)
API: value field is a number in %; no unit string.

Observed VEGFR-2 AVG % Activity at Specific Concentration on VEGFR-2 (Homo sapiens, UniProt P35968) for COCCOCCOCCOCCNC(=O)c1c(C)[nH]c(/C=C2\C(=O)Nc3ccc(F)cc32)c1C , please.
56

Okay, and COCCOCCOCCOCCOCCOCCOCCOCCNC(=O)c1c(C)[nH]c(/C=C2\C(=O)Nc3ccc(F)cc32)c1C ?
73

// same read-out, input: COCCOCCOCCOCCOCCOCCOCCNC(=O)c1c(C)[nH]c(/C=C2\C(=O)Nc3ccc(F)cc32)c1C
80

Ok, now COCCOCCOCCOCCOCCOCCOCCOCCOCCNC(=O)c1c(C)[nH]c(/C=C2\C(=O)Nc3ccc(F)cc32)c1C
61

Another compound: COCCOCCOCCNC(=O)c1c(C)[nH]c(/C=C2\C(=O)Nc3ccc(F)cc32)c1C
47
